Please provide measured OD at 10 nM for the entries that follow.
# ASSAYED_TARGET: T1, hPD-1-his (human, UniProt Q15116 25-167)
# T1 construct: domain: IgV domain; monomer in solution; biotin-labelled where captured by streptavidin; also called biotin-hPD-1-his
# T1 sequence (Q15116 other isoform, or with tags, fused parts or gaps limits assumed): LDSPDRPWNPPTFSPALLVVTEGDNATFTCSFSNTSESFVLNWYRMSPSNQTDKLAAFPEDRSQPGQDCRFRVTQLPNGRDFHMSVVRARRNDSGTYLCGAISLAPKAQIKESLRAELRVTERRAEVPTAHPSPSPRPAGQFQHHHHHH
# PROTOCOL_TEXT: ELISA, PD-1-his on streptavidin
One number for each entry, in OD.

INSERT INTO measurements (binder, measure, value_measured) VALUES
  ('38A6 (antibody, V domains shown, also called 780_46) VH: EVQLLESGGGLVQPGGSLRLSCAASGFTFSSYWMSWVRQAPGKGLEWVSAISGSGGSTYYADSVKGRFTISRDNSKNTLYLQMNSLRAEDTAVYYCASSPLQWVDVWGQGTTVTVSS VL: DIQMTQSPSSLSASVGDRVTITCRASQDISRWLGWYQQKPGKAPKLLIYAASTLQSGVPSRFSGSGSGTDFTLTISSLQPEDFATYYCQQANSFPFTFGPGTKLEIK', 'OD at 10 nM', 0.948),
  ('32A11 (antibody, V domains shown) VH: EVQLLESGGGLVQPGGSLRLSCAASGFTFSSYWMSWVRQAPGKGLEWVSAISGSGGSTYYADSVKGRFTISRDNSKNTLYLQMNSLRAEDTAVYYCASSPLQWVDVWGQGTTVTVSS VL: DIQMTQSPSSLSASVGDRVTITCRASESISIWLAWYQQKPGKAPKLLIYDASNLETGVPSRFSGSGSGTNFTLTISSLQPEDFATYYCQQADSFPFTFGPGTKVDIK', 'OD at 10 nM', 0.919);

Continue with the next binder.
Item: 38A10 (antibody, V domains shown) VH: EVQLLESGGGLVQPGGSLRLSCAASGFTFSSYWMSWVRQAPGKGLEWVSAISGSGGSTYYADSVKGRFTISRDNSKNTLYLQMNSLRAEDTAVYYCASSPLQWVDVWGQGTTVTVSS VL: DIQMTQSPSSLSASVGDRVTITCRASQSISTWLAWYQQKPGKAPKLLIYDASRLQNGVPSRFSGSGSGTDFTLTISSLQPEDFATYYCQQGDSFPFTFGPGTKVDIK | OD at 10 nM: 1
